Biological target: FGFR2 (N549H) (Homo sapiens, UniProt P21802, N549H)
Construct: purchased Millipore 14-742
Sequence (P21802 22-821 N549H): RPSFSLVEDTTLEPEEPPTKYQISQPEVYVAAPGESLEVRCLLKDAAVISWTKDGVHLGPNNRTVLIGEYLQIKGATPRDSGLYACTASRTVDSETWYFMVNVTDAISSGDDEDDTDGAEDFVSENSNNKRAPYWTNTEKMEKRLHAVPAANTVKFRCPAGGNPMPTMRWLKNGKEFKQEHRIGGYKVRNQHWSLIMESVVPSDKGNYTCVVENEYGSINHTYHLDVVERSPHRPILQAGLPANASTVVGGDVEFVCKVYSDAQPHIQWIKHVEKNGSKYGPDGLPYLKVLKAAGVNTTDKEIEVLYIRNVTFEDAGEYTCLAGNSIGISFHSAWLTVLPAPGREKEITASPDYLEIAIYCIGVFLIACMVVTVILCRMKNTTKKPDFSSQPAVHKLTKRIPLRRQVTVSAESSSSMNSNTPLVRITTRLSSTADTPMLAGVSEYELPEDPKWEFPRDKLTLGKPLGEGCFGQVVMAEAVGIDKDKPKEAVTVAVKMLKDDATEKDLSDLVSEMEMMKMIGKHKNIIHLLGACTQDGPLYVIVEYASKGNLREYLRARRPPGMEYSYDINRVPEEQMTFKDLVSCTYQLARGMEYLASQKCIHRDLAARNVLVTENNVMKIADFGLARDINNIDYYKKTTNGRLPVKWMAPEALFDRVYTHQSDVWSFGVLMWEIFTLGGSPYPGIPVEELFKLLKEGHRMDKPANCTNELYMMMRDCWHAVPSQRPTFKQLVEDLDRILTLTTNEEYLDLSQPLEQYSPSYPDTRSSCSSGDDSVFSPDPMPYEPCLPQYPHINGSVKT
Test: FGFR2 kinase activity assay (fluorescent ELISA)
Type: biochemical
Details: 30 μM compound
reported_metric: inhibition at 30 µM (%)

1. COc1ccc(N(C)c2nccn3c(N)nnc23)cc1 = 109
2. CC(C)OC(=O)Nc1nnc2c(N3CCC(n4c(=O)[nH]c5cc(Cl)ccc54)CC3)nccn12 = 65.2
3. Nc1nnc2c(Nc3cc(Cl)ccc3Cl)nccn12 = 68.6
4. Nc1nnc2c(NCCc3ccc(Oc4ccccc4)cc3)nccn12 = 82.9
5. CC(C)OC(=O)Nc1nnc2c(Nc3nc4ccccc4[nH]3)nccn12 = 64.7
6. CC(C)OC(=O)Nc1nnc2c(NCc3cccc(F)c3)nccn12 = 88.8
7. Nc1nnc2c(NCc3ccccc3Br)nccn12 = 59.2
8. CC(C)OC(=O)Nc1nnc2c(N3CCCCC3)nccn12 = 82.5
9. CC(C)OC(=O)Nc1nnc2c(NCc3ccc(C(C)(C)C)cc3)nccn12 = 100
